Target: FGFR1 (h) (Homo sapiens)
Sequence (P11362 22-822): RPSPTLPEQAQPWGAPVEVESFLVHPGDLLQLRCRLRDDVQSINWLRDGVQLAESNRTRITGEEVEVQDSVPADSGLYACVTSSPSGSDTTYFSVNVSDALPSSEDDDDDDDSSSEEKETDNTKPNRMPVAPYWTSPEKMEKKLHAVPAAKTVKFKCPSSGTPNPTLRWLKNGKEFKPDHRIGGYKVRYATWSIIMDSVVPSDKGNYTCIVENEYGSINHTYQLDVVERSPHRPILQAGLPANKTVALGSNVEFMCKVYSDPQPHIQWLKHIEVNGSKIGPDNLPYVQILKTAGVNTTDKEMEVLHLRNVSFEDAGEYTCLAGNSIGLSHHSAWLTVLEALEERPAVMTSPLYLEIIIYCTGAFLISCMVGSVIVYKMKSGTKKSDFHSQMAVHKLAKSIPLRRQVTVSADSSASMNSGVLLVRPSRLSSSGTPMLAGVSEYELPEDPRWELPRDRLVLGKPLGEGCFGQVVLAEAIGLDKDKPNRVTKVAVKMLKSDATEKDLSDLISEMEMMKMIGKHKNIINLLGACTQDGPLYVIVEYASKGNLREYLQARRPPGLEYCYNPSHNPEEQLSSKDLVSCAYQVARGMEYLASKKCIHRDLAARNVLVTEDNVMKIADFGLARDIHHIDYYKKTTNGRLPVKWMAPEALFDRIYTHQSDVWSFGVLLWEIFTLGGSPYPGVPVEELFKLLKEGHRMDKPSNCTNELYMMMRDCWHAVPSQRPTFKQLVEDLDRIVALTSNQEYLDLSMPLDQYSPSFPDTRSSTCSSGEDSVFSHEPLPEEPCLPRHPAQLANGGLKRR
Test: FGFR1 (enzymatic assay), TR-FRET
Assay type: biochemical
Details: read-out: FGFR 1 pIC50 (converted)
Reported Metric: IC50

According to the records, this compound COc1cc(/N=c2\ccc3ncc(-c4cnn(C)c4)nc3n2CC2CCOC2)c(F)c(OC)c1 (single isomer, unassigned) displays IC50 of ~0.933 nM

According to the records, this compound `COc1cc(OC)cc(N(Cc2nc(OC)cc(OC)n2)c2ccc3ncc(-c4cnn(C)c4)nc3n2)c1` displays IC50 of ~39.8 nM

According to the records, this compound `COc1cc(OC)c(F)c(N(Cc2ncc[nH]2)c2ccc3ncc(-c4ccncc4)nc3n2)c1` displays IC50 of 1 nM

* * *

Target: FGFR2 (h) (Homo sapiens)
Sequence (P21802 22-821): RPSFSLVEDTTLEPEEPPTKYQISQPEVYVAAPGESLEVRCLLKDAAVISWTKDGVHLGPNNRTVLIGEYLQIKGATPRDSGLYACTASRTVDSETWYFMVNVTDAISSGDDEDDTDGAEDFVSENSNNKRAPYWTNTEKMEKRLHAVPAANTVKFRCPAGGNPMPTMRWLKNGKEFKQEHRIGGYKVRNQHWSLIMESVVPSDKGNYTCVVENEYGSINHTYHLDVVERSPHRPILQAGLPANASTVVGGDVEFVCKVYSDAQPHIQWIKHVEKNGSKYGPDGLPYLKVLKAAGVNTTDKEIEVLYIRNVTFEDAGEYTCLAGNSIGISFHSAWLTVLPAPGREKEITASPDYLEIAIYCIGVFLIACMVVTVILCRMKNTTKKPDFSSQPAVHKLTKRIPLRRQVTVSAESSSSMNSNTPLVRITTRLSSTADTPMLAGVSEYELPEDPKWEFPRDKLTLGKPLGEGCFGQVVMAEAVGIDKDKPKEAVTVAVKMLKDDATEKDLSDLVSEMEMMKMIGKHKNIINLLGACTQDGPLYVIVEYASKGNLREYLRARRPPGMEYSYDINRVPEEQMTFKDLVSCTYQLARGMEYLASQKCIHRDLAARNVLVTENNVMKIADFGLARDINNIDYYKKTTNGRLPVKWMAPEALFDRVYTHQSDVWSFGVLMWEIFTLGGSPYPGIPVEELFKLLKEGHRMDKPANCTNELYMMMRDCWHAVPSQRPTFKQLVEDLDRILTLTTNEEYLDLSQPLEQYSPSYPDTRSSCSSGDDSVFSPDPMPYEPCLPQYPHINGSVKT
Experiment: FGFR2 (enzymatic assay), TR-FRET
Type: biochemical
Conditions: enzymatic assay; read-out: FGFR 2 pIC50 (converted)
Reported Metric: IC50 (nM)
A number alone suffices; assume nM.

Note to self: IC50 of COc1cc(/N=c2\ccc3ncc(-c4cnn(C)c4)nc3n2CC2CCC(=O)N2CCO)c(F)c(OC)c1 (stereo not shown) [Compound 247] with FGFR2 (h) (Homo sapiens) was 2.34

Note to self: IC50 of COc1ccc(Cl)c(N(CC2CCC(=O)N2)c2ccc3ncc(-c4cnn(C)c4)nc3n2)c1Cl (single isomer, unassigned) [Compound 90] with FGFR2 (h) (Homo sapiens) was 129

Note to self: IC50 of COc1cc(OC)cc(N(CCN2CCCC2=O)c2ccc3ncc(-c4cnn(C)c4)nc3n2)c1 [Compound 151] with FGFR2 (h) (Homo sapiens) was 15.1

Note to self: IC50 of COc1cc(OC)c(F)c(N(CC2CCC(=O)N2)c2ccc3ncc(-c4cnn(CC(C)(C)O)c4)nc3n2)c1 (stereo not shown) [Compound 285] with FGFR2 (h) (Homo sapiens) was 4.07

Note to self: IC50 of COc1cc(OC)cc(N(CCNC2COC2)c2ccc3ncc(-c4cnn(C)c4)nc3n2)c1 [Compound 290] with FGFR2 (h) (Homo sapiens) was 4.47

Note to self: IC50 of COc1cc(OC)c(F)c(N(CCNC2COC2)c2ccc3ncc(-c4cnn(C)c4)nc3n2)c1 [Compound 221] with FGFR2 (h) (Homo sapiens) was 3.09

Note to self: IC50 of COc1cc(OC)c(F)c(N(Cc2nc(OC)cc(OC)n2)c2ccc3ncc(-c4cnn(C)c4)nc3n2)c1 [Compound 220] with FGFR2 (h) (Homo sapiens) was 6.92

Note to self: IC50 of COc1cc(OC)c(F)c(N(CCN2CCOCC2)c2ccc3ncc(-c4cnn(C)c4)nc3n2)c1 [Compound 149] with FGFR2 (h) (Homo sapiens) was 3.09

Note to self: IC50 of COc1cc(OC)c(F)c(N(CCN)c2ccc3ncc(-c4cnn(C)c4)nc3n2)c1 [Compound 168] with FGFR2 (h) (Homo sapiens) was 2.04

Note to self: IC50 of COc1cc(/N=c2\ccc3ncc(-c4cnn(C)c4)nc3n2CC2CCCOC2)cc(OC)c1 (stereo not shown) [Compound 165] with FGFR2 (h) (Homo sapiens) was 2.4

Note to self: IC50 of COc1cc(OC)cc(N(CC(O)COC(C)C)c2ccc3ncc(-c4cnn(CC(O)COC(C)C)c4)nc3n2)c1 (stereo not shown) [Compound 250] with FGFR2 (h) (Homo sapiens) was 6.03

Note to self: IC50 of COc1cc(/N=c2\ccc3ncc(-c4cnn(C)c4)nc3n2CCNC(C)=O)c(F)c(OC)c1 [Compound 243] with FGFR2 (h) (Homo sapiens) was 1.62

Note to self: IC50 of COc1cc(OC)c(F)c(N(CC2CCOC2)c2ccc3ncc(-c4cnn(C)c4)nc3n2)c1 (single isomer, unassigned) [Compound 171] with FGFR2 (h) (Homo sapiens) was 2.57

Note to self: IC50 of COc1cc(OC)cc(N(Cc2ncc[nH]2)c2ccc3ncc(-c4cnn(C5CCNCC5)c4)nc3n2)c1 [Compound 227] with FGFR2 (h) (Homo sapiens) was 1.45

Note to self: IC50 of COc1cc(OC)c(F)c(N(Cc2ncc[nH]2)c2ccc3ncc(N4C[C@@H](C)N[C@@H](C)C4)nc3n2)c1 [Compound 259] with FGFR2 (h) (Homo sapiens) was 2.88
